biological target: Potassium voltage-gated channel subfamily KQT member 1 (Homo sapiens); test: human KCNQ1 current enhancers – cell-based, thallium flux, high-throughput, primary screen (AID 2648); settings: CHO-K1 KCNQ1, thallium flux FluxOR fluorescence, at 10 µM
In all, about 310,000 compounds went through this assay and about 1,100 (0.35%) were called active.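 Rule for the calls: active = fluorescence ratio B-score, a plate-corrected score, at least three library SD, with initial intensity B-score within 5 SD; inactive = the rest.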 The sample holds actives, similar compounds and a random draw of the others, so the mix is not that of the screen.
Labels: Yes (active), No (inactive)

# COMPOUND, SYSTEM TESTED, CATEGORY LABEL
data = [
    ("CCC1(C)Cc2c(sc3[nH]c(=S)n(Cc4ccccc4)c(=O)c23)CO1 (centres undefined)", "Potassium voltage-gated channel subfamily KQT member 1 (Homo sapiens)", "Yes"),
    ("Cc1cccc(OCC(=O)NC(=S)Nc2ccccc2N2CCOCC2)c1", "Potassium voltage-gated channel subfamily KQT member 1 (Homo sapiens)", "No"),
    ("Cc1ccc(N(CC(=O)NC2CCCCC2)C(=O)CCCC(=O)Nc2ccccn2)c(C)c1", "Potassium voltage-gated channel subfamily KQT member 1 (Homo sapiens)", "No"),
    ("O=C(Nc1cccn(Cc2ccccc2Cl)c1=O)NC1CCCCC1", "Potassium voltage-gated channel subfamily KQT member 1 (Homo sapiens)", "No"),
    ("Cc1ccc(-n2c(C)cc(/C=N\\NC(=O)CC(=O)NC(C)C)c2C)cc1", "Potassium voltage-gated channel subfamily KQT member 1 (Homo sapiens)", "No"),
    ("CCn1c(O)c(N=NC2=NC(=O)CS2)c2cc(C)ccc21", "Potassium voltage-gated channel subfamily KQT member 1 (Homo sapiens)", "Yes"),
    ("CCc1cc2c(=O)c(-c3ccon3)c(N)oc2cc1OC", "Potassium voltage-gated channel subfamily KQT member 1 (Homo sapiens)", "No"),
    ("O=C(O)C1CCCN1S(=O)(=O)c1ccc(Br)cc1 (centres undefined)", "Potassium voltage-gated channel subfamily KQT member 1 (Homo sapiens)", "No"),
    ("Cc1ccc(O)c(NC(=S)NC(=O)COc2ccc(Br)cc2)c1", "Potassium voltage-gated channel subfamily KQT member 1 (Homo sapiens)", "Yes"),
    ("COc1cc(C(=O)NCC(=O)NCCSc2ccc(Br)cc2)cc(OC)c1OC", "Potassium voltage-gated channel subfamily KQT member 1 (Homo sapiens)", "No"),
    ("Cc1c(N=Nc2ccc(N(C)C)cc2)c(=O)n(-c2ccccc2)n1C", "Potassium voltage-gated channel subfamily KQT member 1 (Homo sapiens)", "No"),
    ("CC(CC(=O)Nc1ccccc1)n1ccnc1 (centres undefined)", "Potassium voltage-gated channel subfamily KQT member 1 (Homo sapiens)", "No"),
    ("CCNC(=S)Nc1ccc(OC(F)(F)F)cc1", "Potassium voltage-gated channel subfamily KQT member 1 (Homo sapiens)", "No"),
    ("CC(=O)N(CCCN(C)C)c1nc2ccc(C)cc2s1", "Potassium voltage-gated channel subfamily KQT member 1 (Homo sapiens)", "No"),
    ("COCCNC(=O)CSc1nc2sccc2c(=O)n1-c1ccccc1", "Potassium voltage-gated channel subfamily KQT member 1 (Homo sapiens)", "No"),
    ("COc1ccc(OC)c(CCNC(=O)c2nn(C)c3c2CS(=O)(=O)c2ccccc2-3)c1", "Potassium voltage-gated channel subfamily KQT member 1 (Homo sapiens)", "No"),
    ("COC(=O)Cn1c2ccc(C)cc2c2nc(C)sc21", "Potassium voltage-gated channel subfamily KQT member 1 (Homo sapiens)", "No"),
    ("COc1ccc(C(=O)C2CCCN(C(=O)c3cnsn3)C2)c(C)c1 (centres undefined)", "Potassium voltage-gated channel subfamily KQT member 1 (Homo sapiens)", "No"),
    ("O=C(CCN1C(=O)c2ccccc2C1=O)NCCN1CCOCC1", "Potassium voltage-gated channel subfamily KQT member 1 (Homo sapiens)", "No"),
    ("Cc1ccc(OS(=O)(=O)c2ccc(-c3csc(C)n3)s2)c(C)c1", "Potassium voltage-gated channel subfamily KQT member 1 (Homo sapiens)", "No"),
    ("Cc1cccc2sc(N(CCCN(C)C)C(=O)CCS(=O)(=O)c3ccccc3)nc12", "Potassium voltage-gated channel subfamily KQT member 1 (Homo sapiens)", "Yes"),
    ("COc1ccc(CC(=O)n2nc(-c3cccnc3)nc2N)cc1", "Potassium voltage-gated channel subfamily KQT member 1 (Homo sapiens)", "No"),
    ("Cc1cccc(NC(=O)NC(=S)NC(=O)c2ccccc2)c1", "Potassium voltage-gated channel subfamily KQT member 1 (Homo sapiens)", "No"),
    ("CC(=O)C12CC(C)=C(C)CC1CC1C3CCC4=CC(=O)CCC4(C)C3CCC12C (centres undefined)", "Potassium voltage-gated channel subfamily KQT member 1 (Homo sapiens)", "No"),
    ("Cc1cccc(C(=O)Nc2ccc(C(=O)/C=C/c3cccs3)cc2)c1", "Potassium voltage-gated channel subfamily KQT member 1 (Homo sapiens)", "No"),
    ("O=C(c1ccc(F)cc1)c1cn(Cc2ccc(F)cc2)c2cc3c(cc2c1=O)OCCO3", "Potassium voltage-gated channel subfamily KQT member 1 (Homo sapiens)", "No"),
    ("CCOC(=O)c1c(C)nn(-c2ncccc2NC(=O)CCC(=O)O)c1C", "Potassium voltage-gated channel subfamily KQT member 1 (Homo sapiens)", "No"),
    ("O=c1/c(=C/c2ccc(CNS(=O)(=O)c3ccccc3)o2)sc2n1CCN=2", "Potassium voltage-gated channel subfamily KQT member 1 (Homo sapiens)", "No"),
    ("Cc1cccc(/C(N)=N/OC(=O)c2ccccc2Cl)c1", "Potassium voltage-gated channel subfamily KQT member 1 (Homo sapiens)", "No"),
    ("COc1cccc2sc(N(CCCN(C)C)C(=O)CCS(=O)(=O)c3ccccc3)nc12", "Potassium voltage-gated channel subfamily KQT member 1 (Homo sapiens)", "Yes"),
    ("C/C(Cl)=C\\Cn1c(Nc2cccc(C)c2)nc2c1c(=O)n(C)c(=O)n2C", "Potassium voltage-gated channel subfamily KQT member 1 (Homo sapiens)", "No"),
    ("CCCC(=O)n1nc(-c2ccccc2)nc1N", "Potassium voltage-gated channel subfamily KQT member 1 (Homo sapiens)", "Yes"),
    ("O=C(NC1=NCCS1)[C@H](Cc1ccccc1)N1C(=O)c2ccccc2C1=O", "Potassium voltage-gated channel subfamily KQT member 1 (Homo sapiens)", "No"),
    ("CCCCn1c(N)c(N(CCC(C)C)C(=O)CC2OC(=O)c3ccccc32)c(=O)[nH]c1=O (centres undefined)", "Potassium voltage-gated channel subfamily KQT member 1 (Homo sapiens)", "No"),
    ("CCC1(C)Cc2c(sc3nc(SC)[nH]c(=O)c23)CO1 (centres undefined)", "Potassium voltage-gated channel subfamily KQT member 1 (Homo sapiens)", "No"),
    ("Cc1cccc(NC(=S)NC(=O)c2ccc(Br)o2)c1", "Potassium voltage-gated channel subfamily KQT member 1 (Homo sapiens)", "Yes"),
    ("CCCCNC(=O)C1CCCNC1=O (centres undefined)", "Potassium voltage-gated channel subfamily KQT member 1 (Homo sapiens)", "No"),
    ("Cc1cccc(-n2c(C)cc(/C=N\\NC(=O)c3cccs3)c2C)c1", "Potassium voltage-gated channel subfamily KQT member 1 (Homo sapiens)", "No"),
    ("NC(=O)Cc1ccc2c(c1)[nH]c1ccccc12", "Potassium voltage-gated channel subfamily KQT member 1 (Homo sapiens)", "No"),
    ("Cc1sc(NC(=O)C2=COCCO2)c(C#N)c1C", "Potassium voltage-gated channel subfamily KQT member 1 (Homo sapiens)", "No"),
    ("S=c1[nH]c2ccccc2c2ccccc12", "Potassium voltage-gated channel subfamily KQT member 1 (Homo sapiens)", "Yes"),
    ("CCn1c(O)c(N=NC(=O)c2cccc(S(=O)(=O)N3CCCCC3)c2)c2ccccc21", "Potassium voltage-gated channel subfamily KQT member 1 (Homo sapiens)", "No"),
    ("COc1cccc(NC(=S)NCc2ccccn2)c1", "Potassium voltage-gated channel subfamily KQT member 1 (Homo sapiens)", "No"),
    ("O=C(Nc1ccc(F)c([N+](=O)[O-])c1)C1CCCO1 (centres undefined)", "Potassium voltage-gated channel subfamily KQT member 1 (Homo sapiens)", "No"),
    ("N#Cc1nc(N)nc(N(c2ccccc2)c2ccccc2)n1", "Potassium voltage-gated channel subfamily KQT member 1 (Homo sapiens)", "No"),
    ("CCCc1noc2c1/C(=N\\O)CCC2", "Potassium voltage-gated channel subfamily KQT member 1 (Homo sapiens)", "No"),
    ("O=C(CSc1nncn1-c1cccnc1)N1CCOCC1", "Potassium voltage-gated channel subfamily KQT member 1 (Homo sapiens)", "No"),
    ("COc1cccc(NC(=S)NC(=O)c2c(Cl)c(C)nn2C)c1", "Potassium voltage-gated channel subfamily KQT member 1 (Homo sapiens)", "Yes"),
    ("Cc1ccc(O)c(NC(=O)COc2cc(C)ccc2C)c1", "Potassium voltage-gated channel subfamily KQT member 1 (Homo sapiens)", "No"),
]
